biological target: alpha-amylase from porcine pancreas (Sus scrofa, UniProt P00690); experiment: alpha-amylase inhibition assay (DNSA method); assay type: biochemical; conditions: read-out: IC50
Sequence (P00690 16-511): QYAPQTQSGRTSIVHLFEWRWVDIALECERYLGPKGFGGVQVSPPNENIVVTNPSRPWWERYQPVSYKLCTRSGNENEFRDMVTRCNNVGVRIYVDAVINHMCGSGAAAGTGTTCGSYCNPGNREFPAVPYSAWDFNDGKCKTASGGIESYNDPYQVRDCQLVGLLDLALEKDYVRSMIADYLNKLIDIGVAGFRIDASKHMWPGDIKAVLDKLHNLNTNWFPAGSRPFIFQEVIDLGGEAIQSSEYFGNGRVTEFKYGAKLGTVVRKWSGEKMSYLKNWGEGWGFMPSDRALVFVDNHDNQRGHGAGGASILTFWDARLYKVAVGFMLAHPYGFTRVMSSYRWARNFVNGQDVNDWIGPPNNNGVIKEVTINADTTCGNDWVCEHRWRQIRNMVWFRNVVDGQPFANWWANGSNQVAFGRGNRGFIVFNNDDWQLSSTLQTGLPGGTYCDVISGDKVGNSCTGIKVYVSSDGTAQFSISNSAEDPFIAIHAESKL
endpoint.name: IC50 (µM)
Write the value in µM as a bare number.

>>> data_value("CC(O)[C@H]1CC[C@@]2(O)[C@]1(C)[C@H](O)[C@@H](O)[C@@H]1[C@@]3(C)CC[C@H](O)CC3=CC[C@]12O (some centres unmarked) [P1, marsectohexol]")
10

Next up:
Request: Given the entry COC1C(O)C(C)OC(OC2C(O)CC(OC3CCC4(C)C(=CCC5(O)C4C(O)C(O)C4(C)C(C(C)=O)CCC54O)C3)OC2C)C1O (centres unmarked) , report its measured IC50.
Response: 13.7

The origin of these recorded values is paper PMC9399641.
